src = paper PMC9465827

# System: Madin-Darby canine kidney (MDCK) cells with canine MDR1 knocked out
# ASSAY EXPLANATION: MDCK permeability assay
# Assay type: in vitro ADME
# TEST CONTEXT: apical to basolateral direction
MEASURED METRIC: permeability (passive diffusion rate), level in words

>>> df
                                   compound    value_reported
0  CN(Cc1cccnc1)C(=O)c1ccc([C@H]2[C@@H](F)[C@@H](F)C[C@@H](F)[C@H]2F)cc1 [J-2c']  highly permeable
1  CN(Cc1cccnc1)C(=O)c1ccc(C2CCCCC2)cc1 [2c']  highly permeable
2  CC(=O)N1CC(C(=O)Nc2ccc(C3CCCCC3)cc2)C1 [1i]              high
3     O=C(Cn1ccnc1)Nc1ccc(C2CCCCC2)cc1 [1c]              high
